Reported self-cleavage values follow for various variants
B1: LINE1-full (parent)
chain: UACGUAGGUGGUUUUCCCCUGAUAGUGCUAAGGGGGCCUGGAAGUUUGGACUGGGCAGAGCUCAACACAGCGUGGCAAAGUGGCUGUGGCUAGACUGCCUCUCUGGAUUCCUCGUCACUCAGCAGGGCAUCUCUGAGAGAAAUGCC

variants of: B1; assay: self-cleavage, relative activity (ratio to wild type); higher = more cleavage; in vitro, sequencing; the parent is a self-cleaving ribozyme
Give only the figure.

chainSequence | recordedResult
UACGUAGGUGGUUUUCCCCUGAUAGUGCUAAGGGGGCCUGGAAGUUUGGACUGGGCAGAGCUCAACACAGCGUGGCAAAGUGGCUGUGGCUAGACAGCCUCUCUGGAUUCCUCGUCACUCAACAGGGCAUCUCUGAGAGAAAUGCC [U96A G122A] | 0.06
UACGUAGGUGGUUUUCCCCUGAUAGUGCUAAGGGGGCCUGGAGGUUUGGACUGGGCAGAGCUCAACACAGUGUGGCAAAGUGGCUGUGGCUAGACUGCCUCUCUGGAUUCCUCGUCACUCAGCAGGGCAUCUCUGAGAGAAAUGCC [A43G C71U] | 0.15
UACGUAGGUGGUUUUCCUCUGAUAGUGCUAAGGGGGCCUGGAAGUUUGGACUGGGCAGAGCUCAACACAGCGUGGCUAAGUGGCUGUGGCUAGACUGCCUCUCUGGAUUCCUCGUCACUCAGCAGGGCAUCUCUGAGAGAAAUGCC [C18U A77U] | 1.11

Which self-cleavage is listed for UACGUAGGUGGUUUUCCCCGGAUAGUGCUAAGGGGGCCUGGAAGUUUGGACUGGGCAGAGCUCAACACAGCGUGGCGAAGUGGCUGUGGCUAGACUGCCUCUCUGGAUUCCUCGUCACUCAGCAGGGCAUCUCUGAGAGAAAUGCC [U20G A77G] ?
1.36

Which self-cleavage is listed for UACGUAGGUGGUUUUCCCCUGAUAGUGCUAAGGGGGCCUGGAAGUUAGGACUGGGCAGAGCUCAACACAGCGUGGCAAAGUGGCUGUGGCUAGACUGCCUCUCUGGAUUCCUCGUCACUCAGCAGGUCAUCUCUGAGAGAAAUGCC [U47A G127U] ?
1.67

Which self-cleavage is listed for UACGUAGGUGGUUAUCCCCUGAAAGUGCUAAGGGGGCCUGGAAGUUUGGACUGGGCAGAGCUCAACACAGCGUGGCAAAGUGGCUGUGGCUAGACUGCCUCUCUGGAUUCCUCGUCACUCAGCAGGGCAUCUCUGAGAGAAAUGCC [U14A U23A] ?
0.72

Which self-cleavage is listed for UACGUAGGUGGUUUUCCCCUGAUAGUGCUAAGGGGGCCUGGAAGUUUGGACUGGGCAGAGCUCAACACAGCGAGGCAAAGUGGCUGUGGCUAGGCUGCCUCUCUGGAUUCCUCGUCACUCAGCAGGGCAUCUCUGAGAGAAAUGCC [U73A A94G] ?
0.35

Which self-cleavage is listed for UACGUAGGUGGUUUUCCCCUGAUAGUGCUACGGGGGCCUGGAAGUUUGGACUGGGCAGCGCUCAACACAGCGUGGCAAAGUGGCUGUGGCUAGACUGCCUCUCUGGAUUCCUCGUCACUCAGCAGGGCAUCUCUGAGAGAAAUGCC [A31C A59C] ?
0.61

Which self-cleavage is listed for UACGUAGGUGGUUUUCCCUUGAUAGUGCUAAGGGGGCCUGGAAGUUUGGACUGGGCAGAGCUCAACACAGCGUGGCAAAGUGGCUGUGGCUAGAUUGCCUCUCUGGAUUCCUCGUCACUCAGCAGGGCAUCUCUGAGAGAAAUGCC [C19U C95U] ?
0.43

Which self-cleavage is listed for UACGUAGGUGGUUUUCCCCUGAUAGUGCUAAGGGGUCCUGGAAGUUUGGACUGGGCAGAGCUCAACACAGCGUGGCAAAGUGGCUGUGGCUAGACUGCCUCUCUGGAUUCCUCGUCACUCAGCAGGGCAUCUCCGAGAGAAAUGCC [G36U U134C] ?
1.99

Which self-cleavage is listed for UACGUAGGUGGUUUUCCCCUGAUAGUGCUAAGGGGGCCUGGAAGUUUGGACUGGGCAGAGCUCAACACAGCGGGGCGAAGUGGCUGUGGCUAGACUGCCUCUCUGGAUUCCUCGUCACUCAGCAGGGCAUCUCUGAGAGAAAUGCC [U73G A77G] ?
0.98

Which self-cleavage is listed for UACGUAGGUGGUUUUCCCCUGAUAGUGCUAAGGGGGCCUGGAAGUUUGGACUGGGCAGAGCUCAACACAGCGUGGCAAAGUGGCUGUGGCUAGACUGCCACUCUGGAAUCCUCGUCACUCAGCAGGGCAUCUCUGAGAGAAAUGCC [U100A U108A] ?
0.97

Which self-cleavage is listed for UACGUAGGUGGUUUUCCCCUGAUAGUGCUAAGGGGGCCUGGAAGUUUGGACAGGGCAGAGCUCAACACAGCGUGGCAAAGUGGCUGUGGCUAGACUGCCUCUCUGGAUUCCUCGUCACUCAGCAGGGCAUCUCUGAGAGACAUGCC [U52A A141C] ?
1.48

Which self-cleavage is listed for UACGUAGGUGGUUUUCCCCUGAUAGUGCUAAGGGGGCCUGGAAGUUUGGACUGGGCAGUGCUCAACACAGCGUGGCAAAGUGGCUGUGGCUAGACUGCCUCUCUGGAUUCCUCGUCACUCAGCAGGGCAUCUCUGAGGGAAAUGCC [A59U A138G] ?
0.83

Which self-cleavage is listed for UACGUAGGUGGUUUUCCCCUGAUAGUGCUAAGGGGGCCUGGAAGUUUGGACUGGGCAGAGCUCAACUCAGCGUGGCAAAGUGGCUGUGGCUAGACUGCCCCUCUGGAUUCCUCGUCACUCAGCAGGGCAUCUCUGAGAGAAAUGCC [A67U U100C] ?
0.27

Which self-cleavage is listed for UGCGUAGGUGGUUUUCCCCUGAUAGUGCUAAGGGGGCCUGGAAGUUUGGACUGGGCAGAGCUCAACACAGCGUGGCAAAGUGGCUGUGGCUAGACUGCCUCUCCGGAUUCCUCGUCACUCAGCAGGGCAUCUCUGAGAGAAAUGCC [A2G U104C] ?
0.84

Which self-cleavage is listed for UACGUAGGUGGUUUCCCCCUGAUAGUGCUAAGGGGGCCUGGAAGUUUGGACUGGGCAGAGCUCAACACAGCGUGGCAAAGUGGCUGUGGCUAGACUGCCACUCUGGAUUCCUCGUCACUCAGCAGGGCAUCUCUGAGAGAAAUGCC [U15C U100A] ?
0.62

Which self-cleavage is listed for UACGUAGGUGGUUUUCCCCUGAUAGUGCUAAGGGGGCCUGGAAGUUUGGACCGGGCAGAGCUCAACACAGCGUGGCAAAGUGGCUGUGGCUCGACUGCCUCUCUGGAUUCCUCGUCACUCAGCAGGGCAUCUCUGAGAGAAAUGCC [U52C A92C] ?
0

Which self-cleavage is listed for UACGUAGGUGGUUUUCCCCUGAUAGUGCUAAGGGGGCCUGGAAGUUUGGACUGGGCAGAGCUCAACACAGCGCGGCAAAGUGGCUGUGGCUAGACUGCCUCUCUGGAUUCCUUGUCACUCAGCAGGGCAUCUCUGAGAGAAAUGCC [U73C C113U] ?
1.85

Which self-cleavage is listed for UACGUAGGUGGUUCUCCCCUGAUAGUGCUAAGGGGGCCUGGAAGUUUGGACUGGGCAGAGCUCAACACAGCGUGGAAAAGUGGCUGUGGCUAGACUGCCUCUCUGGAUUCCUCGUCACUCAGCAGGGCAUCUCUGAGAGAAAUGCC [U14C C76A] ?
1.31

Which self-cleavage is listed for UACGUAGGUGGUUUUCCCCUGAUAGUGCUAAGGGGGCCUGGAUGUUUGGACUGGGCAGAGCUCAACACAGCGUGGCAAAGUGGCUGUGACUAGACUGCCUCUCUGGAUUCCUCGUCACUCAGCAGGGCAUCUCUGAGAGAAAUGCC [A43U G89A] ?
0.06

Which self-cleavage is listed for UACGUAGGUGGUUUUCCCCUGAUAGUGCUAAGGGGGCCUGGAAGUUUGGACUGGGCAGAGCUCAACACAGCGUGGCAAAGUGGCUGUGGCUAGACUGCCUCUCUGGAUUCCUGGUCACUCAGCAGGGCAUCUCUGAGAGAAAUGCC [C113G] ?
1.58

Which self-cleavage is listed for UACGUAGGUGGUUUCCCCCCGAUAGUGCUAAGGGGGCCUGGAAGUUUGGACUGGGCAGAGCUCAACACAGCGUGGCAAAGUGGCUGUGGCUAGACUGCCUCUCUGGAUUCCUCGUCACUCAGCAGGGCAUCUCUGAGAGAAAUGCC [U15C U20C] ?
1.33

Which self-cleavage is listed for UACGUAGGUGGUUUUCCCCUGAUAGUGCUAAGGGGGCCUGGAAGUUUGGACUGGGCAGAGCUCAACACAGCGUGGCAAAGUGGCUGUGGCUAGACUGCCUCCCUGGAUUCCUCGUCACUCAGCAGGGCAUCUCUGAAAGAAAUGCC [U102C G137A] ?
1.8

Which self-cleavage is listed for UACGUAGGUGGUUUUCCCCUGAUAGUGCUAAGGGGGCCUGGAAGUUUGGACUGGGCAGAGCUCAACACAGCAUGGCAAAGUGGCUGUGGCUAGACUGCCUCCCUGGAUUCCUCGUCACUCAGCAGGGCAUCUCUGAGAGAAAUGCC [G72A U102C] ?
0.46

Which self-cleavage is listed for UACGUAGGUGGUUAUCCCCUGAUAGUGCUAAGGGGGCCUGGAAGUUUGGACUGGGCAGAGCUCAACACGGCGUGGCAAAGUGGCUGUGGCUAGACUGCCUCUCUGGAUUCCUCGUCACUCAGCAGGGCAUCUCUGAGAGAAAUGCC [U14A A69G] ?
2.24

Which self-cleavage is listed for UAAGUAGGUGGUUUUCCCCUGAUAGUGCUAAGGGGGCCUGGAAGUUUGGACUGGCCAGAGCUCAACACAGCGUGGCAAAGUGGCUGUGGCUAGACUGCCUCUCUGGAUUCCUCGUCACUCAGCAGGGCAUCUCUGAGAGAAAUGCC [C3A G55C] ?
0.07
